The reported numbers originate from the supplement of paper PMC8967900.

# System: MN-60
# protocol details: selective drug sensitivity score (sDSS, relative to normal bone marrow) (sDSS (score)); higher = more potent and effective on the cell line relative to normal bone marrow cells
# run parameters: 72 h
attribute measured: selective drug sensitivity score
Respond numerically, and do not add a unit to the figure.

Record request: selective drug sensitivity score value, item CC1(COc2ccc3c(c2)ncn3-c2ccc3cccc(N4CCC(N)CC4)c3n2)COC1 [Crenolanib] (top concentration 10000 nM)
-3.42

Record request: selective drug sensitivity score value, item N#CCNC(=O)c1ccc(-c2ccnc(Nc3ccc(N4CCOCC4)cc3)n2)cc1 [Momelotinib] (top concentration 10000 nM)
-7.22

Record request: selective drug sensitivity score value, item COCCOc1cnc2ccn([C@H](C)c3nnc4c(F)cc(-c5cnn(C)c5)cn34)c(=O)c2c1 [AMG-337] (top concentration 10000 nM)
-0.06

###

# Tested on: MN-60;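 also: ALL cell lines in 384-well plates, five doses spanning 10,000-fold, each plate scaled between vehicle and 100 µmol/L benzalkonium chloride controls, sDSS an adapted area-under-curve metric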
# protocol details: selective drug sensitivity score (sDSS, relative to normal bone marrow) (sDSS (score)); higher = more potent and effective on the cell line relative to normal bone marrow cells
# run parameters: 72 h
Label rule, in plain words: selective drug sensitivity score of -2 and up is criterion met, under -2 is criterion not met.

Hello, I need to know if Nc1cccc2c1CN(C1CCC(=O)NC1=O)C2=O (stereo not given) [Lenalidomide] (top concentration 100000 nM) has measured selective drug sensitivity score not below -2. Thanks!
criterion not met

Hello, I need to know if O=c1[nH]c(C2CCCN2)nc2c1oc1ccc(Cl)cc12 (stereo not given) (top concentration 10000 nM) has measured selective drug sensitivity score not below -2. Thanks!
criterion not met

Hello, I need to know if Cc1nc(Nc2ncc(C(=O)Nc3c(C)cccc3Cl)s2)cc(N2CCN(CCO)CC2)n1 [Dasatinib] (top concentration 1000 nM) has measured selective drug sensitivity score not below -2. Thanks!
criterion met

Hello, I need to know if Nc1nc(N)c2nc(-c3cccc(O)c3)c(-c3cccc(O)c3)nc2n1 [TG100-115] (top concentration 10000 nM) has measured selective drug sensitivity score not below -2. Thanks!
criterion met

Hello, I need to know if CS(=O)(=O)N1CCN(Cc2cc3nc(-c4cccc5[nH]ncc45)nc(N4CCOCC4)c3s2)CC1 [Pictilisib] (top concentration 10000 nM) has measured selective drug sensitivity score not below -2. Thanks!
criterion met

Hello, I need to know if CN[C@@H](C)C(=O)N[C@H]1CN(C(=O)CC(C)C)CC[C@H]2CC[C@@H](C(=O)NC(c3ccccc3)c3ccccc3)N2C1=O [AT-406] (top concentration 10000 nM) has measured selective drug sensitivity score not below -2. Thanks!
criterion met

Hello, I need to know if CC(C)Cn1cnc2c(N)nc3ccccc3c21 [Imiquimod] (top concentration 2500 nM) has measured selective drug sensitivity score not below -2. Thanks!
criterion met

Hello, I need to know if CC(C)(C)c1cnc(CSc2cnc(NC(=O)C3CCNCC3)s2)o1 [SNS-032] (top concentration 10000 nM) has measured selective drug sensitivity score not below -2. Thanks!
criterion not met

Hello, I need to know if Oc1ccc2c(c1)CC[C@H](c1ccccc1)[C@@H]2c1ccc(OCCN2CCCC2)cc1 [Lasofoxifene] (top concentration 1000 nM) has measured selective drug sensitivity score not below -2. Thanks!
criterion met

Hello, I need to know if Cn1cncc1[C@@](N)(c1ccc(Cl)cc1)c1ccc2c(c1)c(-c1cccc(Cl)c1)cc(=O)n2C [Tipifarnib] (top concentration 10000 nM) has measured selective drug sensitivity score not below -2. Thanks!
criterion met

Hello, I need to know if Cc1c(C(=O)Nc2ccc(N3C[C@@H](C)O[C@@H](C)C3)nc2)cccc1-c1ccc(OC(F)(F)F)cc1 [Sonidegib] (top concentration 10000 nM) has measured selective drug sensitivity score not below -2. Thanks!
criterion met

Hello, I need to know if O=C(Nc1cccc(Nc2ncc(Br)c(NCCc3cnc[nH]3)n2)c1)N1CCCC1 [BX-912] (top concentration 10000 nM) has measured selective drug sensitivity score not below -2. Thanks!
criterion met

Hello, I need to know if COc1cc2c(N3CCN(C(=O)Nc4ccc(OC(C)C)cc4)CC3)ncnc2cc1OCCCN1CCCCC1 [Tandutinib] (top concentration 1000 nM) has measured selective drug sensitivity score not below -2. Thanks!
criterion met

Hello, I need to know if CN1CCN(c2nc(C3=C(c4c[nH]c5ccccc45)C(=O)NC3=O)c3ccccc3n2)CC1 [Sotrastaurin] (top concentration 10000 nM) has measured selective drug sensitivity score not below -2. Thanks!
criterion not met

Hello, I need to know if NC(=O)c1cccc(-c2cccc(OC(=O)NC3CCCCC3)c2)c1 [URB597] (top concentration 1000 nM) has measured selective drug sensitivity score not below -2. Thanks!
criterion met

Hello, I need to know if CCc1cnn2c(NCc3ccc[n+]([O-])c3)cc(N3CCCC[C@H]3CCO)nc12 [Dinaciclib] (top concentration 1000 nM) has measured selective drug sensitivity score not below -2. Thanks!
criterion not met

Hello, I need to know if COc1cc2ncnc(Nc3cccc(Cl)c3F)c2cc1OC(=O)N1CCN(C)C[C@H]1C [AZD3759] (top concentration 1000 nM) has measured selective drug sensitivity score not below -2. Thanks!
criterion met

Hello, I need to know if CCCOc1ccn2c(C(C)=O)cc(-c3ccccc3S(C)(=O)=O)c2c1 [GSK2801] (top concentration 10000 nM) has measured selective drug sensitivity score not below -2. Thanks!
criterion met

Hello, I need to know if CC(C)n1cnc2c(NCCc3ccc(O)cc3)nc(-c3csc4ccccc34)nc21 [StemRegenin_1] (top concentration 10000 nM) has measured selective drug sensitivity score not below -2. Thanks!
criterion met

Hello, I need to know if Cc1ncc(-c2ccnc(Nc3ccc(S(C)(=O)=O)cc3)n2)n1C(C)C [AZD-5438] (top concentration 10000 nM) has measured selective drug sensitivity score not below -2. Thanks!
criterion not met

Hello, I need to know if Cc1cc2c(C(C)C)c(O)c(O)c(C=O)c2c(O)c1-c1c(C)cc2c(C(C)C)c(O)c(O)c(C=O)c2c1O [AT-101] (top concentration 100000 nM) has measured selective drug sensitivity score not below -2. Thanks!
criterion met

Hello, I need to know if O=C(c1cc(Cc2n[nH]c(=O)c3ccccc23)ccc1F)N1CCN(C(=O)C2CC2)CC1 [Olaparib] (top concentration 10000 nM) has measured selective drug sensitivity score not below -2. Thanks!
criterion not met

Hello, I need to know if CC1(C)OCCn2c1nc1c(N3CCOCC3)nc(-c3cnc(N)nc3)nc12 [GDC-0084] (top concentration 10000 nM) has measured selective drug sensitivity score not below -2. Thanks!
criterion met

Hello, I need to know if Cc1cc(OCc2nnc(SC3CCCC3)n2-c2cccnc2)ccc1-c1ccc(S(C)(=O)=O)cc1 [NMS-873] (top concentration 10000 nM) has measured selective drug sensitivity score not below -2. Thanks!
criterion met

Hello, I need to know if CO[C@H]1C[C@@H]2CC[C@@H](C)[C@@](O)(O2)C(=O)C(=O)N2CCCC[C@H]2C(=O)O[C@H]([C@H](C)C[C@@H]2CC[C@@H](OC(=O)C(C)(CO)CO)[C@H](OC)C2)CC(=O)[C@H](C)/C=C(\C)[C@@H](O)[C@@H](OC)C(=O)[C@H](C)C[C@H](C)/C=C/C=C/C=C/1C [Temsirolimus] (top concentration 100 nM) has measured selective drug sensitivity score not below -2. Thanks!
criterion met
